# maps each entry to its pIC50
ASSAYED SYSTEM: IL-23R (Homo sapiens, UniProt Q5VWK5)
Construct: host or cells: HEK293
Sequence (Q5VWK5 24-629): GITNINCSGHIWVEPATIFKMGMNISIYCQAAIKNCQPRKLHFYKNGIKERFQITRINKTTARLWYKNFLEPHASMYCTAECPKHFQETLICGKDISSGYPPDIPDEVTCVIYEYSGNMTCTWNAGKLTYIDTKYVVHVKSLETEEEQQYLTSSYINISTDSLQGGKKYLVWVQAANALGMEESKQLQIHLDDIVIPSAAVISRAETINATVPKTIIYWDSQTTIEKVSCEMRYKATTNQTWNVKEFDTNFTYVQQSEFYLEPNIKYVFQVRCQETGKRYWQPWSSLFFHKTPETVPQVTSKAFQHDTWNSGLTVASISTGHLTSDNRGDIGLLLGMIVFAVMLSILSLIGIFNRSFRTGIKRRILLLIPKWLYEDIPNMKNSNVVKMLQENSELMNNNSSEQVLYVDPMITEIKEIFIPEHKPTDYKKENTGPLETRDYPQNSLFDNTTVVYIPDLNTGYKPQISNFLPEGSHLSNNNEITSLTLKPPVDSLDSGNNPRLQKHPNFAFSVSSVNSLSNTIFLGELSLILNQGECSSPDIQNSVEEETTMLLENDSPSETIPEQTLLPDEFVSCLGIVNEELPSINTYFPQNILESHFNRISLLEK
ASSAY PROTOCOL: IL23R Reporter Assay
Format: cell-based
REPORTED CONDITIONS: HEK293 cells containing IL-23R, IL-12RP1 and STAT-inducible firefly luciferase reporter; 10 ng/mL IL-23 (EC90); 5 h at 37° C.; read-out: IL23R Reporter Assay
pIC50: −log10 of the molar value.

[
  {
    "ENTRY SMILES": "CC(=O)NCCCC[C@@H]1NC(=O)[C@H](Cc2c[nH]c3c(C)cccc23)NC(=O)[C@H]([C@@H](C)O)NC(=O)[C@H](CC(N)=O)NC(=O)[C@@H](NC(=O)CCCc2ccc(I)cc2)C(C)(C)SSC(C)(C)[C@@H](C(=O)N[C@@H](Cc2ccc(OCCCCC[N+](C)(C)C)cc2)C(=O)N[C@@H](Cc2ccc3ccccc3c2)C(=O)NC2(C(=O)N[C@@H](CCCCNC(=O)COc3ccc(-c4ccc(F)cc4F)cc3C(=O)O)C(=O)N[C@@H](CC(N)=O)C(=O)N[C@@H](Cc3cccnc3)C(=O)N(C)CC(N)=O)CCOCC2)NC1=O",
    "pIC50": 7.29
  },
  {
    "ENTRY SMILES": "CC(=O)NCCCC[C@@H]1NC(=O)[C@H](Cc2c[nH]c3c(-c4cccc(NC(C)=O)c4)cccc23)NC(=O)[C@H]([C@@H](C)O)NC(=O)[C@H](CC(N)=O)NC(=O)[C@@H](NC(C)=O)C(C)(C)SSC(C)(C)[C@@H](C(=O)N[C@@H](Cc2ccc(OCCCCC[N+](C)(C)C)cc2)C(=O)N[C@@H](Cc2ccc3ccccc3c2)C(=O)NC2(C(=O)N[C@@H](CCC(=O)O)C(=O)N[C@@H](CC(N)=O)C(=O)N[C@@H](Cc3cncc(C)c3)C(=O)N(C)CC(N)=O)CCOCC2)NC1=O",
    "pIC50": 8.07
  }
]

====

ASSAY PROTOCOL: Exposed Polar Surface Area (EPSA)
Type: physicochemical
REPORTED CONDITIONS: SFC on Chirex 3014 column; sample 1 mM DMSO stock; read-out: EPSA
Protocol: Exposed Polar Surface Area (EPSA) is an experimental descriptor of molecular polarity obtained from chromatographic retention in supercritical fluid chromatography (SFC). […] Along with the measurement of compounds of interest, a series of 8 calibration standards (see Materials) are analyzed generating a linear relationship between retention times and EPSA value. […]
QUANTITY KIND: EPSA (A^2)

[
  {
    "MOLECULE": "CC(=O)NCCCC[C@@H]1NC(=O)[C@H](Cc2c[nH]c3c(C)cccc23)NC(=O)[C@H]([C@@H](C)O)NC(=O)[C@H](CC(N)=O)NC(=O)[C@@H](NC(=O)C(COCCOCC[N+](C)(C)C)NC(C)=O)C(C)(C)SSC(C)(C)[C@@H](C(=O)N[C@@H](Cc2ccc(OCCCCC[N+](C)(C)C)cc2)C(=O)N[C@@H](Cc2ccc3ccccc3c2)C(=O)NC2(C(=O)N[C@@H](CCCCNC(C)=O)C(=O)N[C@@H](CC(N)=O)C(=O)N[C@@H](Cc3cccnc3)C(=O)N(C)CC(N)=O)CCOCC2)NC1=O (mixture of isomers)",
    "READOUT VALUE": 163
  },
  {
    "MOLECULE": "CC(=O)NCCCC[C@@H]1NC(=O)[C@H](Cc2c[nH]c3cccc(C)c23)NC(=O)[C@H]([C@@H](C)O)NC(=O)[C@H](CC(N)=O)NC(=O)[C@@H](NC(C)=O)C(C)(C)SSC(C)(C)[C@@H](C(=O)N[C@@H](Cc2ccc(OCCCCC[N+](C)(C)C)cc2)C(=O)N[C@@H](Cc2ccc3ccccc3c2)C(=O)NC2(C(=O)N[C@@H](CCCCNC(C)=O)C(=O)N[C@@H](CC(N)=O)C(=O)N[C@@H](Cc3cccnc3)C(=O)N(C)CC(N)=O)CCCC2)NC1=O",
    "READOUT VALUE": 163
  },
  {
    "MOLECULE": "CC(=O)NCCCC[C@@H]1NC(=O)[C@H](Cc2c[nH]c3c(C)cccc23)NC(=O)[C@H]([C@@H](C)O)NC(=O)[C@H](CC(N)=O)NC(=O)[C@@H](NC(C)=O)C(C)(C)SSC(C)(C)[C@@H](C(=O)N[C@@H](Cc2ccc(OCC3CCC([N+](C)(C)C)CC3)cc2)C(=O)N[C@@H](Cc2ccc3ccccc3c2)C(=O)NC2(C(=O)N[C@@H](CCCCNC(C)=O)C(=O)N[C@@H](CC(N)=O)C(=O)N[C@@H](Cc3cccnc3)C(=O)N(C)CC(N)=O)CCOCC2)NC1=O (single isomer, unassigned)",
    "READOUT VALUE": 166
  },
  {
    "MOLECULE": "CC(=O)NC(COCCOCC[N+](C)(C)C)C(=O)N[C@@H]1C(=O)N[C@@H](CC(=O)N(C)C)C(=O)N[C@@H]([C@@H](C)O)C(=O)N[C@@H](Cc2c[nH]c3c(C)cccc23)C(=O)N[C@@H](CCCCN(C)C(C)=O)C(=O)N[C@H](C(=O)N[C@@H](Cc2ccc(OCCn3cc(CCCC[N+](C)(C)C)nn3)cc2)C(=O)N[C@@H](Cc2ccc3ccccc3c2)C(=O)NC2(C(=O)N[C@@H](CCCCN(C)C(C)=O)C(=O)N[C@@H](CC(N)=O)C(=O)N[C@@H](Cc3cccnc3)C(=O)N(C)CC(=O)N(C)C)CCOCC2)C(C)(C)SSC1(C)C (mixture of isomers)",
    "READOUT VALUE": 154
  }
]

====

ASSAYED SYSTEM: IL-23R (Homo sapiens, UniProt Q5VWK5)
Construct: host or cells: HEK293
ASSAY PROTOCOL: IL23R Reporter Assay
Format: cell-based
REPORTED CONDITIONS: HEK293 cells containing IL-23R, IL-12RP1 and STAT-inducible firefly luciferase reporter; 10 ng/mL IL-23 (EC90); 5 h at 37° C.; read-out: IL23R Reporter Assay

[
  {
    "MOLECULE": "CC(=O)NCCCC[C@@H]1NC(=O)[C@H](Cc2c[nH]c3c(C)cccc23)NC(=O)[C@H]([C@@H](C)O)NC(=O)[C@H](CC(N)=O)NC(=O)[C@@H](NC(=O)C(COCCOCC[N+](C)(C)C)NC(C)=O)C(C)(C)SSC(C)(C)[C@@H](C(=O)N[C@@H](Cc2ccc(OCCN)cc2)C(=O)N[C@@H](Cc2ccc3ccccc3c2)C(=O)NC2(C(=O)N[C@@H](CCC(=O)O)C(=O)N[C@@H](CC(N)=O)C(=O)N[C@@H](Cc3cccnc3)C(=O)N(C)CC(N)=O)CCOCC2)NC1=O (mixture of isomers)",
    "RESULT UNIT": "nM",
    "IC50": 4.5
  },
  {
    "MOLECULE": "CC(=O)NCCCC[C@@H]1NC(=O)[C@H](Cc2c[nH]c3c(C)cccc23)NC(=O)[C@H]([C@@H](C)O)NC(=O)[C@H](CC(N)=O)NC(=O)[C@@H](NC(C)=O)C(C)(C)SSC(C)(C)[C@@H](C(=O)N[C@@H](Cc2ccc(OCCCC[N+](C)(C)C)cc2)C(=O)N[C@@H](Cc2ccc3ccccc3c2)C(=O)NC2(C(=O)N[C@@H](CCC(=O)O)C(=O)N[C@@H](CC(N)=O)C(=O)N[C@@H](Cc3cccnc3)C(=O)N(C)CC(N)=O)CCOCC2)NC1=O",
    "RESULT UNIT": "nM",
    "IC50": 5.5
  }
]

====

ASSAY PROTOCOL: Exposed Polar Surface Area (EPSA)
Assay type: physicochemical
REPORTED CONDITIONS: SFC on Chirex 3014 column; sample 1 mM DMSO stock; read-out: EPSA
Experimental: Exposed Polar Surface Area (EPSA) is an experimental descriptor of molecular polarity obtained from chromatographic retention in supercritical fluid chromatography (SFC). […] Along with the measurement of compounds of interest, a series of 8 calibration standards (see Materials) are analyzed generating a linear relationship between retention times and EPSA value. […]

[
  {
    "COMPOUND": "CC(=O)NCCCC[C@@H]1NC(=O)[C@H](Cc2c[nH]c3c(-c4cccc(NC(C)=O)c4)cccc23)NC(=O)[C@H]([C@@H](C)O)NC(=O)[C@H](CC(N)=O)NC(=O)[C@@H](NC(C)=O)C(C)(C)SSC(C)(C)[C@@H](C(=O)N[C@@H](Cc2ccc(OCCCCC[N+](C)(C)C)cc2)C(=O)N[C@@H](Cc2ccc3ccccc3c2)C(=O)NC2(C(=O)N[C@@H](CCCCNC(C)=O)C(=O)N[C@@H](CC(N)=O)C(=O)N[C@@H](Cc3cncc(C)c3)C(=O)N(C)CC(N)=O)CCOCC2)NC1=O [compound 503]",
    "EPSA": "169 A^2"
  },
  {
    "COMPOUND": "CC(=O)N(C)CCCC[C@@H]1NC(=O)[C@H](Cc2c[nH]c3ccccc23)NC(=O)[C@H]([C@@H](C)O)NC(=O)[C@H](CC(=O)N(C)C)NC(=O)[C@@H](NC(=O)CCOCCOCC[N+](C)(C)C)C(C)(C)SSC(C)(C)[C@@H](C(=O)N[C@@H](Cc2ccc(OCCOCCOCC[N+](C)(C)C)cc2)C(=O)N[C@@H](Cc2c[nH]c3ccccc23)C(=O)NC2(C(=O)N[C@@H](CCCCN(C)C(C)=O)C(=O)N[C@@H](CC(N)=O)C(=O)N[C@H]3Cc4cnccc4N(CC(=O)N(C)C)C3=O)CCOCC2)NC1=O [compound 564]",
    "EPSA": "153 A^2"
  },
  {
    "COMPOUND": "CC(=O)NCCCC[C@@H]1NC(=O)[C@H](Cc2c[nH]c3c(C)cccc23)NC(=O)[C@H]([C@@H](C)O)NC(=O)[C@H](CC(N)=O)NC(=O)[C@@H](NC(=O)COc2ccc(-c3ccc(F)cc3F)cc2C(=O)O)C(C)(C)SSC(C)(C)[C@@H](C(=O)N[C@@H](Cc2ccc(OCCCCC[N+](C)(C)C)cc2)C(=O)N[C@@H](Cc2ccc3ccccc3c2)C(=O)NC2(C(=O)N[C@@H](CCCCNC(C)=O)C(=O)N[C@@H](CC(N)=O)C(=O)N[C@@H](Cc3cccnc3)C(=O)N(C)CC(N)=O)CCOCC2)NC1=O [compound 527]",
    "EPSA": "189 A^2"
  }
]
